biological target: SCRIB_1, Q14160; test: holdup assay; design: key: below the threshold = too weak to quantify, mostly under pKd 3.1 to 4; settings: plain residues with an end cap or a label only (N-terminal biotin on a linker: ahx)
Sequence (Q14160 718-814): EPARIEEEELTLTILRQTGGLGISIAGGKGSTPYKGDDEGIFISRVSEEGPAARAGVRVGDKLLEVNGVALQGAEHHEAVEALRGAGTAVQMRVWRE
quantity kind: pKd

INSERT INTO results (binder, measured_number) VALUES
  ('QPRTWLQSPV [RTKN, Q9BST9]', 3.69),
  ('HTHSYIETHV [CNKSR2, Q8WXI2]', 5.64),
  ('TQKFRASTAL [FRMPD1, Q5SYB0]', 4.22),
  ('QDEKVKESYV [ABCA1, O95477]', 4.15);
